Cited source for all entries: patent US20070037785A1

- system: dipeptidyl peptidase IV (Homo sapiens, UniProt P27487)
- Sequence (P27487 whole entry, species assumed): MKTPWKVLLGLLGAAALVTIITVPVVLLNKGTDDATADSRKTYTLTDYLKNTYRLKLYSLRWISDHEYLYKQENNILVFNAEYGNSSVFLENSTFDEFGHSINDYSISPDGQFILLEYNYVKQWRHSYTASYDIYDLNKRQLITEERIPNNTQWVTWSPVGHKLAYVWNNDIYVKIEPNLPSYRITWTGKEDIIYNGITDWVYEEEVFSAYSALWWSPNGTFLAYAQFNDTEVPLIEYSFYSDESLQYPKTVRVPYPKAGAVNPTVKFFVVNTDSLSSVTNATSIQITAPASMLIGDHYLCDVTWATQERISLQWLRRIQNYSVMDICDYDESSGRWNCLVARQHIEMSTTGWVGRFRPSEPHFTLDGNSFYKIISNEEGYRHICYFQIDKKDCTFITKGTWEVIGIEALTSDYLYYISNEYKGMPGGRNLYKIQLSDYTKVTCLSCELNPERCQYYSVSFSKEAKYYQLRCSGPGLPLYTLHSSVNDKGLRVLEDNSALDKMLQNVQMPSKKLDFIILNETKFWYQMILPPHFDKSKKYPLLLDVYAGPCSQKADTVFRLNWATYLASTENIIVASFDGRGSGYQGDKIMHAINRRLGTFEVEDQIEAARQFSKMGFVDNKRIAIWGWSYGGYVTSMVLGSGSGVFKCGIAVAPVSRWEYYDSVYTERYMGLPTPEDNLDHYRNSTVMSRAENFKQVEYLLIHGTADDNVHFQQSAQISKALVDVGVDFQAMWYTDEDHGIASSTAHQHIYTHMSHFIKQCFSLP
- experiment: biochemical
- assay-conditions: values marked with "*" are ID50 values; read-out: IC50DPIV, values marked with "*" = ID50
pIC50: −log10 of the molar value.

{"columns": ["compound", "pIC50"],
 "data": [
  ["C=CCOC(=O)C1=CS(=O)(=O)c2ccccc21", 3.60],
  ["O=C(Oc1cccc(-n2cnnn2)c1)C1CC1", 4.01],
  ["Cc1ccccc1NC(=O)C(=O)N/N=C/c1cccc(Cl)c1 [D10.144]", 3.11],
  ["CS(=O)(=O)N1CCN(c2ccc([N+](=O)[O-])c(NCc3ccc(Cl)cc3)c2)CC1 [D4.112]", 3.44],
  ["CN(C)c1ccc(C2C3C(=O)N(c4ccccc4)C(=O)C3ON2c2ccc(Cl)cc2)cc1 (centres unmarked)", 3.46]
]}

###

Below, each of the compounds is paired with its reported pIC50 value.
- system: dipeptidyl peptidase IV (Homo sapiens)
- experiment: biochemical
- assay-conditions: values without "*" = IC-50; read-out: IC50DPIV
pIC50: −log10 of the molar value.

{"columns": ["compound", "system", "pIC50"],
 "data": [
  ["COc1cccc(/C=N/NC(=O)c2cc(-c3cccc([N+](=O)[O-])c3)n[nH]2)c1O", "dipeptidyl peptidase IV (Homo sapiens)", 3.96],
  ["CC(C)(C)S(=O)(=O)c1ccc2nc3c(n2c1)CCCC3", "dipeptidyl peptidase IV (Homo sapiens)", 4.81],
  ["CCOC(=O)c1cn(-c2ccc(N3C(=O)CSCC3=O)cc2)nc1C", "dipeptidyl peptidase IV (Homo sapiens)", 4.43],
  ["O=C(Cn1c2ccccc2c(=O)c2ccccc21)N/N=C/c1cc(I)c(O)c([N+](=O)[O-])c1", "dipeptidyl peptidase IV (Homo sapiens)", 4.28],
  ["Cc1nnc(SCC(=O)OCN2C(=O)c3ccccc3C2=O)[nH]1", "dipeptidyl peptidase IV (Homo sapiens)", 4.56],
  ["CCC(N)C(=O)c1cccs1 (stereo not drawn)", "dipeptidyl peptidase IV (Homo sapiens)", 4.21],
  ["Cc1ccccc1SCC(=O)N/N=C/c1ccc(C)c([N+](=O)[O-])c1", "dipeptidyl peptidase IV (Homo sapiens)", 4.23],
  ["CCCn1c(N2CCN(CC(=O)c3c[nH]c4ccccc34)CC2)nc2c1c(=O)[nH]c(=O)n2C [D6.046]", "dipeptidyl peptidase IV (Homo sapiens)", 4.51],
  ["O=C(CCCCC(=O)N/N=C/c1ccccc1[N+](=O)[O-])N/N=C/c1ccccc1[N+](=O)[O-]", "dipeptidyl peptidase IV (Homo sapiens)", 4.89]
]}

###

- system: dipeptidyl peptidase IV (Homo sapiens, UniProt P27487)
- experiment: biochemical
- assay-conditions: values without "*" = IC-50; read-out: IC50DPIV
Below, each of the compounds is paired with its reported IC50 value.

{"columns": ["compound", "IC50 (µM)"],
 "data": [
  ["COc1ccc(Br)cc1/C=N/NC(=O)COc1ccc(C)cc1[N+](=O)[O-]", 45.6],
  ["COc1cc2c(cc1OC)C1(CCCC1)CN(CC#N)C2", 31.4],
  ["COc1cc(N2C(=O)CSCC2=O)c(Cl)cc1Cl", 35.3],
  ["CCOC(=O)N1CCN(c2ccc(N3C(=O)CCCC3=O)cc2[N+](=O)[O-])CC1", 70.4],
  ["CN(C)c1ccc(/C=C(\\NC(=O)c2ccccc2)C(=O)N/N=C/c2cc(/N=N/c3ccccc3)ccc2O)cc1", 33.9],
  ["Nc1nonc1-n1nnc(C(=O)NN=C2c3ccccc3-c3ccccc32)c1-c1ccccc1 [D6.013]", 10.1],
  ["CC(C)(C)CC(C)(C)c1ccc(OCC(=O)N/N=C/c2ccc(OC(=O)c3ccco3)c([N+](=O)[O-])c2)cc1", 52.9],
  ["CCC(O)(CC)C(=O)NNc1ccccc1C", 5.7],
  ["O=C(/C=C/c1ccco1)c1ccccc1", 19.7],
  ["CC(/C=N/NC(=O)CNc1ccc(C)cc1)=C\\c1ccc(/C=C(C)/C=N/NC(=O)CNc2ccc(C)cc2)cc1", 20.5],
  ["CN(C)CCNc1nc2c(c(=O)n(C)c(=O)n2C)n1Cc1ccccc1Cl [D6.006]", 7.5],
  ["CCCC(=O)O/N=C1\\C(=O)N(c2ccccc2)c2ccccc21 [D3.021]", 15.2],
  ["NCc1ccccc1-n1cccc1", 92.5],
  ["Cc1cccc(C2N(CC(C)C)CC(C(=O)c3c(C)cccc3C)N2CCCN2CCCC2=O)c1 (stereo not drawn)", 7.5],
  ["CCSc1nnc2n(-c3ccc(OC)cc3)c(=O)c3c4c(sc3n12)CCCC4 [D6.031]", 20.2],
  ["Cc1ccc(C(=O)C2(C)N(O)C(C)C(c3cccs3)=[N+]2[O-])cc1 (stereo not drawn)", 34.1],
  ["C=CCOC(=O)c1cc(-c2ccc(/C=C3/C(=O)N(CCCO)C(=O)C(C#N)=C3C)o2)ccc1Cl [D6.065]", 44.6],
  ["Nc1nonc1-n1nnc(C(=O)NN=C2c3ccccc3-c3ccccc32)c1-c1ccccc1 [D3.011]", 10.1],
  ["COc1cc(/C=N/NC(=O)/C(=C/c2ccc(N(C)C)cc2)NC(=O)c2ccccc2)cc(Br)c1O", 46.2],
  ["O=C1C(Cc2c[nH]c3ccccc23)NC(=S)N1c1ccccc1 (stereo not drawn)", 40.2],
  ["Cc1cc(-c2ccc(/C=C(\\C#N)c3nc4ccccc4[nH]3)o2)ccc1[N+](=O)[O-]", 138],
  ["O=C(/C=C/c1ccco1)Nc1ccc2oc(-c3cccc(Cl)c3Cl)nc2c1", 42.4],
  ["O=C(N/N=C/c1cc(Br)c(O)c(Br)c1O)/C(=C\\c1ccc2c(c1)OCO2)NC(=O)c1ccccc1 [D3.081]", 60],
  ["O=C(N/N=C/c1cc([N+](=O)[O-])ccc1O)c1cccc2cc[nH]c12", 8.1],
  ["COc1cc(Br)cc(Br)c1OCC(=O)N/N=C/c1ccc(O)c([N+](=O)[O-])c1", 32.1],
  ["CCC(=O)Oc1ccc(/C=N/NC(=O)c2ccccc2[N+](=O)[O-])c(OC(=O)CC)c1", 6.6],
  ["CC1=C(C#N)C(=O)N(CCCO)C(=O)/C1=C\\c1ccc(-c2cc(C)c(C)cc2[N+](=O)[O-])o1 [D6.055]", 34.8],
  ["O=[N+]([O-])c1ccc(C2OCN3COCC23)cc1 (stereo not drawn)", 42.4],
  ["COc1ccc(OCC(=O)N/N=C\\C(C)=C/c2ccc(/C=C(C)\\C=N/NC(=O)COc3ccc(OC)cc3Br)cc2)c(Br)c1", 91.3],
  ["CCOC(=O)C(NC(=O)c1ccccc1)(N1CCOCC1)C(F)(F)F (stereo not drawn)", 61.9],
  ["O=C(Cn1nnc(-c2ccc(F)cc2)n1)N/N=C/c1ccc(-c2ccc3c(c2)COC3=O)o1", 20.3],
  ["Cc1cccc(-n2c(=O)c3c4c(sc3n3c(SC(C)C(=O)N5CCOCC5)nnc23)COC(C(C)C)C4)c1 (stereo not drawn)", 10.1],
  ["CCC(=O)Oc1ccc(C(=O)Nc2ccc(OCC(=O)O)cc2)cc1", 23.8],
  ["COC1CC2=C(CC1OC)CC(C)(C)NC2 (stereo not drawn)", 28.8],
  ["COC(=O)C1=C(N)N2C(=O)CSC2=C(C(=O)OC)C1", 34.1],
  ["N#CC1=C(N)C(C#N)(C#N)C(c2ccccc2F)C2CNCC=C12 (stereo not drawn)", 7.4]
]}
